# Assayed system: T1, human CD300LB on primary human monocytes (human, UniProt A8K4G0 18-201)
# T1 construct: Endogenous protein on primary cells; that the target is CD300LB is inferred from the antibodies being anti-CD300LB antibodies; also called Monocyte donor 1281; Monocyte donor 1282
# T1 sequence: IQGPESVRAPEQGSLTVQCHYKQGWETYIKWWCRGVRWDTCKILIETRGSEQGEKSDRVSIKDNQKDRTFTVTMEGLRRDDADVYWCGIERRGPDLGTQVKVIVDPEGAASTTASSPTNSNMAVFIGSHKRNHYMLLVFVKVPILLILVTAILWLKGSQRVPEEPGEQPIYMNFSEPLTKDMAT
# Protocol summary: flow cytometry, primary human monocytes donor 1281, 10 ug/mL antibody, isotype control subtracted
# Description: Human monocytes from various donors were isolated from whole blood using RosetteSep Human Monocyte Enrichment Cocktail (Stemcell technologies) and Ficoll centrifugation per manufacturer protocols. […] Cells were counted on the day of the experiment and plated at 100,000 cells per well in a round-bottom 96 well plate. […] Samples were immediately analyzed using a BD FACSCanto flow cytometer. The gMFI was calculated using FlowJo software minus the gMFI of the appropriate isotype control.
Decision: gMFI compared against 700 gMFI; not below it gives rule met, below it gives rule not met.

Binder	Cat
anti-CD300LB antibody CD-09 (antibody, V domains shown) VH: QVQLVQSGAEVKKPGASVKVSCKASGYTFTTYAVHWVRQAPGQGLEWMGIINPNSGGTNYAQKFQGRVTMTRDTSTSTVYMELSSLRSEDTAVYYCARDIVPMNNFYNYYYGMDVWGQGTTVTVSS VL: DIQMTQSPSSLSASVGDRVTITCRASQSISSYLNWYQQKPGKAPKLLIYATSTLQSGVPSRFSGSGSGTDFTLTISSLQPEDFATYYCQQSYRIPYTFGQGTKVEIK	rule met
anti-CD300LB antibody CD-05 (antibody, V domains shown) VH: QVQLVQSGAEVKKPGASVKVSCKASGYTFSRYYINWVRQAPGQGLEWMGWINPNSGGTNYAQKFQGRVTMTRDTSTSTVYMELSSLRSEDTAVYYCTTDQLRFGKTGPYYGMDVWGQGTTVTVSS VL: DIQMTQSPSSLSASVGDRVTITCRASQNIGTYLNWYQQKPGKAPKLLIYAASSLQSGVPSRFSGSGSGTDFTLTISSLQPEDFATYYCQQSYSDTLTFGGGTKVEIK	rule met
anti-CD300LB antibody CD-07 (antibody, V domains shown) VH: QVQLVQSGAEVKKPGASVKVSCKASGYTFTNYRMHWVRQAPGQGLEWMGWINPNSGGTIYAQKFQGRVTMTRDTSTSTVYMELSSLRSEDTAVYYCARDLDYWGQGTLVTVSS VL: DIQMTQSPSSLSASVGDRVTITCQASQDISNYLNWYQQKPGKAPKLLIYGASSLQSGVPSRFSGSGSGTDFTLTISSLQPEDFATYYCQQSYSTPWTFGPGTKVEIK	rule not met
anti-CD300LB antibody CD-06 (antibody, V domains shown) VH: QVQLVQSGAEVKKPGASVKVSCKASGYTFTTYAVHWVRQAPGQGLEWMGIVNPNSGGTNYAQKFQGRVTMTRDTSTSTVYMELSSLRSEDTAVYYCARDIVPMNNFYNYYYGMDVWGQGTTVTVSS VL: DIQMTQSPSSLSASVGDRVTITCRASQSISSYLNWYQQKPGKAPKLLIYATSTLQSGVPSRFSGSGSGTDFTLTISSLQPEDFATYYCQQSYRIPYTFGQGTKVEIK	rule met
anti-CD300LB antibody CD-08 (antibody, V domains shown) VH: EVQLLESGGGLVQPGGSLRLSCAASGFTFSNAWMSWVRQAPGKGLEWVSVISGSGGRTYYADSVKGRFTISRDNSKNTLYLQMNSLRAEDTAVYYCARDGTTVAPKGMDVWGQGTTVTVSS VL: DIQMTQSPSSLSASVGDRVTITCQASQDINNYVNWYQQKPGKAPKLLIYAASNLQSGVPSRFSGSGSGTDFTLTISSLQPEDFATYYCQQSYSPPYTFGQGTKLEIK	rule met
